Conditions used: 295.15 K; 101.33 kPa; Liquid; Vibrating tube method
Measurement type: mass density (kg/m3)

# Molecule, mass density, kg/m3
rows = [
    ("OCC(F)(F)C(F)(F)F [2,2,3,3,3-pentafluoropropanol]", 1511.35),
    ("OCC(F)(F)C(F)(F)C(F)(F)C(F)(F)C(F)(F)F [2,2,3,3,4,4,5,5,6,6,6-undecafluorohexan-1-ol]", 1714.2),
    ("OCC(F)(F)C(F)(F)C(F)(F)C(F)(F)F [2,2,3,3,4,4,5,5,5-nonafluoropentan-1-ol]", 1657.16),
    ("OCC(F)(F)C(F)(F)C(F)(F)F [2,2,3,3,4,4,4-heptafluorobutanol]", 1601.22),
]

----------
Conditions used: 299.15 K; 101.33 kPa; Liquid; Vibrating tube method
Measurement type: mass density (kg/m3)

# Molecular string, mass density, kg/m3
measured = [
    ("OCC(F)(F)C(F)(F)C(F)(F)F", 1593.37),
    ("OCC(F)(F)C(F)(F)C(F)(F)C(F)(F)C(F)(F)F", 1706.43),
    ("OCC(F)(F)C(F)(F)C(F)(F)C(F)(F)F", 1649.34),
    ("OCC(F)(F)C(F)(F)F", 1503.71),
]

----------
Conditions used: 307.15 K; 101.33 kPa; Liquid; Vibrating tube method
Measurement type: mass density (kg/m3)

# Molecular string, mass density, kg/m3
rows = [
    ("OCC(F)(F)C(F)(F)C(F)(F)C(F)(F)F", 1633.42),
    ("OCC(F)(F)C(F)(F)F", 1488.13),
    ("OCC(F)(F)C(F)(F)C(F)(F)C(F)(F)C(F)(F)F", 1690.62),
    ("OCC(F)(F)C(F)(F)C(F)(F)F", 1577.36),
]

----------
Conditions used: 281.15 K; 101.33 kPa; Liquid; Vibrating tube method
Measurement type: mass density (kg/m3)

# Compound, mass density [kg/m3]
rows = [
    ("OCC(F)(F)C(F)(F)C(F)(F)F [2,2,3,3,4,4,4-heptafluorobutanol]", 1627.99),
    ("OCC(F)(F)C(F)(F)C(F)(F)C(F)(F)F [2,2,3,3,4,4,5,5,5-nonafluoropentan-1-ol]", 1683.95),
    ("OCC(F)(F)C(F)(F)C(F)(F)C(F)(F)C(F)(F)F [2,2,3,3,4,4,5,5,6,6,6-undecafluorohexan-1-ol]", 1740.82),
    ("OCC(F)(F)C(F)(F)F [2,2,3,3,3-pentafluoropropanol]", 1537.35),
]

----------
Conditions used: 282.15 K; 101.33 kPa; Liquid; Vibrating tube method
Measurement type: mass density (kg/m3)

# Molecular string, Measurement type, Unit text, Readout value
rows = [
    ("OCC(F)(F)C(F)(F)C(F)(F)C(F)(F)F", "mass density", "kg/m3", 1682.07),
    ("OCC(F)(F)C(F)(F)C(F)(F)C(F)(F)C(F)(F)F", "mass density", "kg/m3", 1738.95),
    ("OCC(F)(F)C(F)(F)C(F)(F)F", "mass density", "kg/m3", 1626.11),
    ("OCC(F)(F)C(F)(F)F", "mass density", "kg/m3", 1535.52),
]

----------
Conditions used: 287.15 K; 101.33 kPa; Liquid; Vibrating tube method
Measurement type: mass density (kg/m3)

# Molecular string, mass density [kg/m3]
rows = [
    ("OCC(F)(F)C(F)(F)F", 1526.33),
    ("OCC(F)(F)C(F)(F)C(F)(F)C(F)(F)F", 1672.58),
    ("OCC(F)(F)C(F)(F)C(F)(F)F", 1616.63),
    ("OCC(F)(F)C(F)(F)C(F)(F)C(F)(F)C(F)(F)F", 1729.52),
]

----------
Conditions used: 288.15 K; 101.33 kPa; Liquid; Vibrating tube method
Measurement type: mass density (kg/m3)

# Molecular string, mass density / kg/m3
records = [
    ("OCC(F)(F)C(F)(F)C(F)(F)F", 1614.73),
    ("OCC(F)(F)C(F)(F)C(F)(F)C(F)(F)C(F)(F)F", 1727.62),
    ("OCC(F)(F)C(F)(F)C(F)(F)C(F)(F)F", 1670.67),
    ("OCC(F)(F)C(F)(F)F", 1524.47),
]

----------
Conditions used: 293.15 K; 101.33 kPa; Liquid; Vibrating tube method
Measurement type: mass density (kg/m3)

# Molecular string, Readout value
records = [
    ("OCC(F)(F)C(F)(F)F", 1515.12),
    ("OCC(F)(F)C(F)(F)C(F)(F)C(F)(F)F", 1661.05),
    ("OCC(F)(F)C(F)(F)C(F)(F)C(F)(F)C(F)(F)F", 1718.06),
    ("OCC(F)(F)C(F)(F)C(F)(F)F", 1605.11),
]

----------
Conditions used: 296.15 K; 101.33 kPa; Liquid; Vibrating tube method
Measurement type: mass density (kg/m3)

# Molecular string, mass density (kg/m3)
data = [
    ("OCC(F)(F)C(F)(F)C(F)(F)C(F)(F)F", 1655.22),
    ("OCC(F)(F)C(F)(F)F", 1509.44),
    ("OCC(F)(F)C(F)(F)C(F)(F)F", 1599.26),
    ("OCC(F)(F)C(F)(F)C(F)(F)C(F)(F)C(F)(F)F", 1712.27),
]

----------
Conditions used: 300.15 K; 101.33 kPa; Liquid; Vibrating tube method
Measurement type: mass density (kg/m3)

# Molecular string, Measurement type, Readout value
records = [
    ("OCC(F)(F)C(F)(F)C(F)(F)F", "mass density", 1591.39),
    ("OCC(F)(F)C(F)(F)C(F)(F)C(F)(F)F", "mass density", 1647.37),
    ("OCC(F)(F)C(F)(F)F", "mass density", 1501.79),
    ("OCC(F)(F)C(F)(F)C(F)(F)C(F)(F)C(F)(F)F", "mass density", 1704.47),
]

----------
Conditions used: 279.15 K; 101.33 kPa; Liquid; Vibrating tube method
Measurement type: mass density (kg/m3)

# Molecular string, mass density, kg/m3
rows = [
    ("OCC(F)(F)C(F)(F)C(F)(F)C(F)(F)C(F)(F)F", 1744.56),
    ("OCC(F)(F)C(F)(F)F", 1540.99),
    ("OCC(F)(F)C(F)(F)C(F)(F)C(F)(F)F", 1687.71),
    ("OCC(F)(F)C(F)(F)C(F)(F)F", 1631.74),
]

----------
Conditions used: 298.15 K; 101.33 kPa; Liquid; Vibrating tube method
Measurement type: mass density (kg/m3)

# Compound, mass density [kg/m3]
records = [
    ("OCC(F)(F)C(F)(F)C(F)(F)C(F)(F)C(F)(F)F [2,2,3,3,4,4,5,5,6,6,6-undecafluorohexan-1-ol]", 1708.38),
    ("OCC(F)(F)C(F)(F)C(F)(F)C(F)(F)F [2,2,3,3,4,4,5,5,5-nonafluoropentan-1-ol]", 1651.3),
    ("OCC(F)(F)C(F)(F)C(F)(F)F [2,2,3,3,4,4,4-heptafluorobutanol]", 1595.34),
    ("OCC(F)(F)C(F)(F)F [2,2,3,3,3-pentafluoropropanol]", 1505.63),
]

----------
Conditions used: 301.15 K; 101.33 kPa; Liquid; Vibrating tube method
Measurement type: mass density (kg/m3)

# Molecular string, Measurement type, Unit text, Readout value
rows = [
    ("OCC(F)(F)C(F)(F)C(F)(F)C(F)(F)F", "mass density", "kg/m3", 1645.39),
    ("OCC(F)(F)C(F)(F)C(F)(F)C(F)(F)C(F)(F)F", "mass density", "kg/m3", 1702.5),
    ("OCC(F)(F)C(F)(F)C(F)(F)F", "mass density", "kg/m3", 1589.41),
    ("OCC(F)(F)C(F)(F)F", "mass density", "kg/m3", 1499.86),
]

----------
Conditions used: 302.15 K; 101.33 kPa; Liquid; Vibrating tube method
Measurement type: mass density (kg/m3)

# Molecular string, Unit text, mass density
records = [
    ("OCC(F)(F)C(F)(F)F", "kg/m3", 1497.92),
    ("OCC(F)(F)C(F)(F)C(F)(F)F", "kg/m3", 1587.41),
    ("OCC(F)(F)C(F)(F)C(F)(F)C(F)(F)C(F)(F)F", "kg/m3", 1700.54),
    ("OCC(F)(F)C(F)(F)C(F)(F)C(F)(F)F", "kg/m3", 1643.41),
]
